Test: Half life in human plasma at 112 uM by HPLC-UV/MS analysis
Assay type: ADME, cell-free
Square brackets hold non-standard residues; d marks the D form. Peptide text beside a SMILES is read from it. N(4-hydroxyphenethyl)Gly = O=C(O)CNCCc1ccc(O)cc1; Oic = O=C(O)[C@@H]1C[C@@H]2CCCC[C@@H]2N1; Tic(7-OH) = O=C(O)[C@@H]1Cc2ccc(O)cc2CN1; 2Nal = N[C@@H](Cc1ccc2ccccc2c1)C(=O)O; Dmt = Cc1cc(O)cc(C)c1C[C@H](N)C(=O)O
Readings of half-life at 112 µM for the listed compounds

[
  {
    "Compound": "CC(=O)N[C@@H](Cc1ccc(O)cc1)C(=O)N[C@@H](Cc1ccccc1)C(=O)N[C@@H](CC(C)C)C(=O)N(CC(=O)N[C@@H](CCCNC(=N)N)C(=O)N1CCC[C@H]1C(=O)N[C@@H](CCCNC(=N)N)C(=O)N[C@@H](CC(N)=O)C(N)=O)Cc1ccccc1",
    "half-life at 112 µM": "14 h"
  },
  {
    "Compound": "CC(=O)N[C@@H](Cc1ccc(O)cc1)C(=O)N[C@@H](Cc1ccccc1)C(=O)N[C@@H](CC(C)C)C(=O)N[C@@H](Cc1c(C)cc(O)cc1C)C(=O)N[C@@H](CCCNC(=N)N)C(=O)N1CCC[C@H]1C(=O)N[C@@H](CCCNC(=N)N)C(=O)N[C@@H](CC(N)=O)C(N)=O (Ac-YFL[Dmt]RPRN-NH2)",
    "half-life at 112 µM": "4.22 h"
  },
  {
    "Compound": "CC(=O)N[C@@H](Cc1ccc2ccccc2c1)C(=O)N[C@@H](Cc1ccccc1)C(=O)N[C@@H](CC(C)C)C(=O)N[C@@H](Cc1ccccc1)C(=O)N[C@@H](CCCNC(=N)N)C(=O)N1CCC[C@H]1C(=O)N[C@@H](CCCNC(=N)N)C(=O)N[C@@H](CC(N)=O)C(N)=O (Ac-[2Nal]FLFRPRN-NH2)",
    "half-life at 112 µM": "2.15 h"
  }
]

Q) Write down half-life at 112 µM measured for item CC(=O)N[C@@H](Cc1ccc(O)cc1)C(=O)N[C@@H](Cc1ccccc1)C(=O)N[C@@H](CC(C)C)C(=O)N[C@@H](Cc1ccccc1)C(=O)N[C@@H](CCCNC(=N)N)C(=O)N1[C@H](C(=O)N[C@@H](CCCNC(=N)N)C(=O)N[C@@H](CC(N)=O)C(N)=O)C[C@@H]2CCCC[C@@H]21 (Ac-YFLFR[Oic]RN-NH2)
A) 23.8 h

Q) Write down half-life at 112 µM measured for item CC(=O)N[C@@H](Cc1ccc(O)cc1)C(=O)N[C@@H](Cc1ccccc1)C(=O)N[C@@H](CC(C)C)C(=O)N[C@@H](Cc1ccccc1)C(=O)N[C@@H](CCCNC(=N)N)C(=O)N1CCC[C@H]1C(=O)N[C@@H](CCCNC(=N)N)C(=O)N[C@@H](CC(N)=O)C(N)=O
A) 1.96 h

Q) Write down half-life at 112 µM measured for item CC(C)C[C@H](NC(=O)[C@H](Cc1ccccc1)NC(=O)[C@@H](N)Cc1ccc(O)cc1)C(=O)N[C@@H](Cc1ccccc1)C(=O)N[C@@H](CCCNC(=N)N)C(=O)N1CCC[C@H]1C(=O)N[C@@H](CCCNC(=N)N)C(=O)N[C@@H](CC(N)=O)C(N)=O
A) 0.0717 h

Q) Write down half-life at 112 µM measured for item CC(=O)N1Cc2cc(O)ccc2C[C@H]1C(=O)N[C@@H](Cc1ccccc1)C(=O)N[C@@H](CC(C)C)C(=O)N[C@@H](Cc1ccccc1)C(=O)N[C@@H](CCCNC(=N)N)C(=O)N1CCC[C@H]1C(=O)N[C@@H](CCCNC(=N)N)C(=O)N[C@@H](CC(N)=O)C(N)=O (Ac-[Tic(7-OH)]FLFRPRN-NH2)
A) 1.83 h

Q) Write down half-life at 112 µM measured for item CC(=O)N[C@@H](Cc1ccc(O)cc1)C(=O)N[C@@H](Cc1ccccc1)C(=O)N[C@@H](CC(C)C)C(=O)N(CCc1ccc(O)cc1)CC(=O)N[C@@H](CCCNC(=N)N)C(=O)N1CCC[C@H]1C(=O)N[C@@H](CCCNC(=N)N)C(=O)N[C@@H](CC(N)=O)C(N)=O (Ac-YFL[N(4-hydroxyphenethyl)Gly]RPRN-NH2)
A) 18.3 h
